Recorded pIC50 by entry
- Tested on: Capan 1 pancreas cancer cells
- procedure_text: XTT dye binding cytotoxicity assay, Capan 1
- Type: cell-based
- setup_conditions: Homo sapiens; Capan 1, pancreas cancer; 72 h; read-out: IC50
pIC50: −log10 of the molar value.

{"compound": "CC(=O)O[C@@]12CO[C@@H]1C[C@H](O)[C@@]1(C)C(=O)[C@H](O)C3=C(C)[C@@H](OC(=O)[C@H](Oc4cccc[n+]4C)[C@@H](NC(=O)OC(C)(C)C)c4ccccc4)C[C@@](O)([C@@H](OC(=O)c4ccccc4)[C@H]21)C3(C)C", "target_or_system": "Capan 1 pancreas cancer cells", "pIC50": 9.23}
{"compound": "CC(=O)O[C@H]1C(=O)[C@@]2(C)[C@H]([C@H](OC(=O)c3ccccc3)[C@]3(O)C[C@H](OC(=O)[C@H](Oc4cccc[n+]4C)[C@@H](NC(=O)c4ccccc4)c4ccccc4)C(C)=C1C3(C)C)[C@]1(OC(C)=O)CO[C@@H]1C[C@@H]2O", "target_or_system": "Capan 1 pancreas cancer cells", "pIC50": 8.24}
{"compound": "CC(=O)O[C@H]1C(=O)[C@]2(C)[C@@H](Oc3cccc[n+]3C)C[C@H]3OC[C@@]3(OC(C)=O)[C@H]2[C@H](OC(=O)c2ccccc2)[C@]2(O)C[C@H](OC(=O)[C@H](O)[C@@H](NC(=O)c3ccccc3)c3ccccc3)C(C)=C1C2(C)C", "target_or_system": "Capan 1 pancreas cancer cells", "pIC50": 7.46}
{"compound": "CC(=O)O[C@@]12CO[C@@H]1C[C@H](O)[C@@]1(C)C(=O)[C@H](O)C3=C(C)[C@@H](OC(=O)[C@H](O)[C@@H](NC(=O)OC(C)(C)C)c4ccccc4)C[C@@](O)([C@@H](OC(=O)c4ccccc4)[C@H]21)C3(C)C [Compound 5, reference compound]", "target_or_system": "Capan 1 pancreas cancer cells", "pIC50": 10.96}
{"compound": "CC(=O)O[C@H]1C(=O)[C@@]2(C)[C@H]([C@H](OC(=O)c3ccsc3)[C@]3(O)C[C@H](OC(=O)[C@H](Oc4cccc[n+]4C)[C@@H](NC(=O)c4ccccc4)c4ccccc4)C(C)=C1C3(C)C)[C@]1(OC(C)=O)CO[C@@H]1C[C@@H]2O", "target_or_system": "Capan 1 pancreas cancer cells", "pIC50": 9.46}
